# Measured Target: EphB3 (receptor of Table 1)
# Run Description: EphB receptor specificity panel (% binding)
The following binders are listed with their measured % Binding values.
Measure: % Binding (%)

[[record]]
binder = "FSPQGPAARNFA (Panned on EphB4) [FSPQGPAARNFA peptide (SEQ ID NO:25)]"
readout_units = "%"
data_value = 11

[[record]]
binder = "DHWRVSPYSLLY (Panned on EphB2) [DHWRVSPYSLLY peptide (SEQ ID NO:13)]"
readout_units = "%"
data_value = 1

[[record]]
binder = "WPPHWPRSLDYA (Panned on EphB2) [WPPHWPRSLDYA peptide (SEQ ID NO:17)]"
readout_units = "%"
data_value = 0

[[record]]
binder = "DHWYYTPWQPIE (Panned on EphB2) [DHWYYTPWQPIE peptide (SEQ ID NO:9)]"
readout_units = "%"
data_value = 5

[[record]]
binder = "GPVADAWLVYPR (Panned on EphB4) [GPVADAWLVYPR peptide (SEQ ID NO:32)]"
readout_units = "%"
data_value = 4

[[record]]
binder = "WHRYPDPRMLPT (Panned on EphB2) [WHRYPDPRMLPT peptide (SEQ ID NO:7)]"
readout_units = "%"
data_value = 31

[[record]]
binder = "WGIPRAAQVMWT (Panned on EphB4) [WGIPRAAQVMWT peptide (SEQ ID NO:33)]"
readout_units = "%"
data_value = 20

[[record]]
binder = "DHWRILPFSLSS (Panned on EphB2) [DHWRILPFSLSS peptide (SEQ ID NO:10)]"
readout_units = "%"
data_value = 4

